The values you see were collected from patent US5304565A.

Subject of test: A-II-receptor (membrane fraction of bovine adrenal cortex) (Bos taurus, UniProt P25104)
Construct: prepared from the membrane fraction of bovine adrenal cortex; from tissue; host or cells: bovine adrenal cortex, membrane fraction
Assay name: Inhibition of binding of angiotensin-II to angiotensin receptor (radio receptor assay, 125I-A-II)
Applied conditions: 10^-7 M, room temperature, one hour
Can you tell me inhibition at 0.1 µM for the items I'm about to list?
Give bare numbers, in %.

State recorded inhibition at 0.1 µM for all listed molecules.
1. CCCCc1nc2ccccc2c(=O)n1Cc1ccc(-c2ccccc2-c2nnn[nH]2)cc1 [Working Example 23]
2. CCCCc1ncc(C(=O)OCC)c(=O)n1Cc1ccc(-c2ccccc2-c2nnn[nH]2)cc1 [Working Example 10]
3. CCCCc1nc2ccc(OCCO)cc2c(=O)n1Cc1ccc(-c2ccccc2-c2nnn[nH]2)cc1 [Working Example 55]
4. CCCCc1nc2cc([N+](=O)[O-])ccc2c(=O)n1Cc1ccc(-c2ccccc2-c2nn[nH]n2)cc1 [Working Example 24]

1. 46
2. 32
3. 75
4. 3

###

Subject of test: A-II-receptor (membrane fraction of bovine adrenal cortex) (Bos taurus)
Construct: prepared from the membrane fraction of bovine adrenal cortex; from tissue; host or cells: bovine adrenal cortex, membrane fraction
Assay name: Inhibition of binding of angiotensin-II to angiotensin receptor (radio receptor assay, 125I-A-II)
Applied conditions: 10^-7 M, room temperature, one hour
Experimental: An experiment of inhibition on the binding of angiotensin-II (A-II) to A-II-receptor was conducted by modifying the method of Douglas et al. [Endocrinology, 102, 685-696 (1978)]. An A-II-receptor was prepared from the membrane fraction of bovine adrenal cortex. The compound of the present invention (10^-9 M to 3×10^-5 M) and ^125 I-A-II (1.85 kBq/50 μl) were added to the receptor membrane fraction, and the mixture was incubated at room temperature for one hour. […]
Can you tell me inhibition at 0.1 µM for the items I'm about to list?
Please state the number and follow it with the unit.

CCCCc1nc2cccc(COC)c2c(=O)n1Cc1ccc(-c2ccccc2-c2nn[nH]n2)cc1: 73%
CCCCC(=O)Oc1ccc2nc(CCCC)n(Cc3ccc(-c4ccccc4-c4nn[nH]n4)cc3)c(=O)c2c1: 66%
CCCc1nc2ccc(OCCO)cc2c(=O)n1Cc1ccc(-c2ccccc2-c2nnn[nH]2)cc1: 76%

Field: next compound
Return value of inhibition at 0.1 µM for input CCCCc1nc2cccc(CO)c2c(=O)n1Cc1ccc(-c2ccccc2-c2nnn[nH]2)cc1 , no commentary.
74%

###

Subject of test: A-II-receptor (membrane fraction of bovine adrenal cortex) (Bos taurus)
Construct: prepared from the membrane fraction of bovine adrenal cortex; from tissue; host or cells: bovine adrenal cortex, membrane fraction
Sequence (P25104 1-359): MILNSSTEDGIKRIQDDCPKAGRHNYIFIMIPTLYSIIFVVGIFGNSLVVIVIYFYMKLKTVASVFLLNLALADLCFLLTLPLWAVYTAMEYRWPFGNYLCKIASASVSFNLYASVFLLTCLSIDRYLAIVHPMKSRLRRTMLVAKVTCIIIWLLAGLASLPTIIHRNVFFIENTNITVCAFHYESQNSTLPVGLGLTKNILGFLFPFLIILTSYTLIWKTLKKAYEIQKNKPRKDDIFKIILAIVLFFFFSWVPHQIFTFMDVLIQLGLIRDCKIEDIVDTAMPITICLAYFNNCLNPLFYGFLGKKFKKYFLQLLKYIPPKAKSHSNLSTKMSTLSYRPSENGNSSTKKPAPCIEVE
Assay name: Inhibition of binding of angiotensin-II to angiotensin receptor (radio receptor assay, 125I-A-II)
Applied conditions: 10^-6 M, room temperature, one hour
Can you tell me inhibition at 1 µM for the items I'm about to list?
Numbers only, in %.

CCCCc1nc2ccccc2c(=O)n1Cc1ccc(-c2ccccc2-c2nnn[nH]2)cc1 [Working Example 23]: 85

State recorded inhibition at 1 µM for all listed molecules.
1. CCCCCc1cc(=O)c(C(=O)OCC)cn1Cc1ccc(-c2ccccc2-c2nn[nH]n2)cc1 [Working Example 3]
2. CCCCc1cc(=O)c(C(=O)OCC)cn1Cc1ccc(-c2ccccc2-c2nnn[nH]2)cc1 [Working Example 2]
3. CCCCc1nc2ccc(OCCO)cc2c(=O)n1Cc1ccc(-c2ccccc2-c2nnn[nH]2)cc1 [Working Example 55]
4. CCCCc1nc2ccc(OC)cc2c(=O)n1Cc1ccc(-c2ccccc2-c2nn[nH]n2)cc1 [Working Example 37]
5. CCCCc1nc2ccc(OCCOC(C)=O)cc2c(=O)n1Cc1ccc(-c2ccccc2-c2nn[nH]n2)cc1 [Working Example 39]
6. CCCCc1nc2ccc(OCC(=O)OC)cc2c(=O)n1Cc1ccc(-c2ccccc2-c2nn[nH]n2)cc1 [Working Example 38]

1: 71; 2: 67; 3: 94; 4: 97; 5: 92; 6: 89

###

Subject of test: A-II-receptor (membrane fraction of bovine adrenal cortex) (Bos taurus)
Construct: prepared from the membrane fraction of bovine adrenal cortex; from tissue; host or cells: bovine adrenal cortex, membrane fraction
Assay name: Inhibition of binding of angiotensin-II to angiotensin receptor (radio receptor assay, 125I-A-II)
Applied conditions: 10^-6 M, room temperature, one hour
Can you tell me inhibition at 1 µM for the items I'm about to list?
Numbers only, in %.

These recorded examples may help you get a feel for the data.
CCCCc1nc2cccc(CO)c2c(=O)n1Cc1ccc(-c2ccccc2-c2nnn[nH]2)cc1 [Working Example 54]: 88
CCCc1nc2ccc(OCC(=O)NCc3ccccc3)cc2c(=O)n1Cc1ccc(-c2ccccc2-c2nn[nH]n2)cc1 [Working Example 49]: 88

State recorded inhibition at 1 µM for all listed molecules.
1. CCCc1nc2ccc(OCCO)cc2c(=O)n1Cc1ccc(-c2ccccc2-c2nnn[nH]2)cc1 [Working Example 53]
2. CCCCc1nc2cccc(COC)c2c(=O)n1Cc1ccc(-c2ccccc2-c2nn[nH]n2)cc1 [Working Example 50]
3. CCCCc1nc(CC(=O)OC)cc(=O)n1Cc1ccc(-c2ccccc2-c2nnn[nH]2)cc1 [Working Example 16]
4. CCCCc1nc2cc([N+](=O)[O-])ccc2c(=O)n1Cc1ccc(-c2ccccc2-c2nn[nH]n2)cc1 [Working Example 24]
5. CCCCc1nc(=O)c(C(=O)OCC)cn1Cc1ccc(-c2ccccc2-c2nnn[nH]2)cc1 [Working Example 11]

[92, 95, 68, 41, 70]

###

Subject of test: A-II-receptor (membrane fraction of bovine adrenal cortex) (Bos taurus, UniProt P25104)
Construct: prepared from the membrane fraction of bovine adrenal cortex; from tissue; host or cells: bovine adrenal cortex, membrane fraction
Assay name: Inhibition of binding of angiotensin-II to angiotensin receptor (radio receptor assay, 125I-A-II)
Applied conditions: 10^-7 M, room temperature, one hour
Can you tell me inhibition at 0.1 µM for the items I'm about to list?
Answers are plain numbers, in %.

CCCCc1nc2ccc(OCCOC(C)=O)cc2c(=O)n1Cc1ccc(-c2ccccc2-c2nn[nH]n2)cc1: 69
CCCc1cc(=O)c(C(=O)OCC)cn1Cc1ccc(-c2ccccc2-c2nn[nH]n2)cc1: 31
CCCCc1nc2cccc(COC(C)=O)c2c(=O)n1Cc1ccc(-c2ccccc2-c2nn[nH]n2)cc1: 72
CCCc1nc2ccc(OCCOC(=O)c3ccccc3)cc2c(=O)n1Cc1ccc(-c2ccccc2-c2nn[nH]n2)cc1: 48
CCCCc1nc(COC)cc(=O)n1Cc1ccc(-c2ccccc2-c2nnn[nH]2)cc1: 29

Return value of inhibition at 0.1 µM for input CCCCc1nc(=O)c(C(=O)OCC)cn1Cc1ccc(-c2ccccc2-c2nnn[nH]2)cc1 , no commentary.
29

###

Subject of test: A-II-receptor (membrane fraction of bovine adrenal cortex) (Bos taurus)
Construct: prepared from the membrane fraction of bovine adrenal cortex; from tissue; host or cells: bovine adrenal cortex, membrane fraction
Sequence (P25104 1-359): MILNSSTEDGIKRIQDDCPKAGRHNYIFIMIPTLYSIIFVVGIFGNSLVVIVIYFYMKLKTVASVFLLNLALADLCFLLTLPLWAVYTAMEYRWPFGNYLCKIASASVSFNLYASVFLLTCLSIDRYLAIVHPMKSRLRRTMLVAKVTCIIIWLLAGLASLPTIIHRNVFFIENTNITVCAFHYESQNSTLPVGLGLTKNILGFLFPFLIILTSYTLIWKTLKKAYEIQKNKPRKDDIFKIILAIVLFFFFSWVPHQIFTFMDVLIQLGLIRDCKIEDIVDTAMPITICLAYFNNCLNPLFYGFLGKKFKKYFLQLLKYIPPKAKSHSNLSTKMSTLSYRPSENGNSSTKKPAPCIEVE
Assay name: Inhibition of binding of angiotensin-II to angiotensin receptor (radio receptor assay, 125I-A-II)
Applied conditions: 10^-6 M, room temperature, one hour
Method: An experiment of inhibition on the binding of angiotensin-II (A-II) to A-II-receptor was conducted by modifying the method of Douglas et al. [Endocrinology, 102, 685-696 (1978)]. An A-II-receptor was prepared from the membrane fraction of bovine adrenal cortex. The compound of the present invention (10^-9 M to 3×10^-5 M) and ^125 I-A-II (1.85 kBq/50 μl) were added to the receptor membrane fraction, and the mixture was incubated at room temperature for one hour. […]
Entry flag: MET if inhibition at 1 µM reaches 80%; NOT MET if it does not.

Example entries begin here.
CCCCc1nc2cc(Cl)ccc2c(=O)n1Cc1ccc(-c2ccccc2-c2nn[nH]n2)cc1: NOT MET
CCCCc1ncc(C(=O)OCC)c(=O)n1Cc1ccc(-c2ccccc2-c2nnn[nH]2)cc1: NOT MET
CCCCc1nc2cccc(C)c2c(=O)n1Cc1ccc(-c2ccccc2-c2nn[nH]n2)cc1: NOT MET
CCCCc1nc2cccc(COC(C)=O)c2c(=O)n1Cc1ccc(-c2ccccc2-c2nn[nH]n2)cc1: MET
CCCCC(=O)Oc1ccc2nc(CCCC)n(Cc3ccc(-c4ccccc4-c4nn[nH]n4)cc3)c(=O)c2c1: MET

Can CCCCc1cc(=O)c(C(=O)OCC)cn1Cc1ccc(-c2ccccc2C(=O)O)cc1 be said to have inhibition at 1 µM at or above 80%?
NOT MET

Can CCCc1cc(=O)c(C(=O)OCC)cn1Cc1ccc(-c2ccccc2-c2nn[nH]n2)cc1 be said to have inhibition at 1 µM at or above 80%?
NOT MET
